- Test system: Clostridium sporogenes DSM 1664
- assay-name: fold change of Tryptamine concentration vs plate DMSO controls (fold change (ratio)); higher = more amine produced, active = hit call of the paper (significant change in both replicates, either direction)
- condition: incubation time: 27 h, anaerobic, 37 °C
Where a name gives a salt, the structure may show the parent alone.
Kindly state fold change of Tryptamine concentration for each of the entries shown.
Response field accepts a number only; no unit should be typed.

Q: // lookup fold change of Tryptamine concentration for O=c1[nH]cnc2c1ncn2[C@H]1CC[C@@H](CO)O1 [Didanosine] (20 µM)
Ans: 0.992

Q: // lookup fold change of Tryptamine concentration for CC(=O)CC(c1ccccc1)c1c(O)c2ccccc2oc1=O (centres undefined) (20 µM)
Ans: 0.979

Q: // lookup fold change of Tryptamine concentration for O=C(O)c1cc(=O)[nH]c(=O)[nH]1 [Orotic acid] (20 µM)
Ans: 1.01

Q: // lookup fold change of Tryptamine concentration for CC(=O)CC(c1ccc([N+](=O)[O-])cc1)c1c(O)c2ccccc2oc1=O (centres undefined) [Acenocoumarol] (20 µM)
Ans: 0.94

Q: // lookup fold change of Tryptamine concentration for CCCCN(CCCC)CCCOC(=O)c1ccc(N)cc1 [Butacaine] (20 µM)
Ans: 0.973

Q: // lookup fold change of Tryptamine concentration for CC[C@@]1(O)C(=O)OCc2c1cc1n(c2=O)Cc2cc3c(CN(C)C)c(O)ccc3nc2-1 [Topotecan] (20 µM)
Ans: 0.992

Q: // lookup fold change of Tryptamine concentration for O=C(O)CSCC(=O)NC1CCSC1=O (centres undefined) [Erdosteine] (20 µM)
Ans: 0.962

Q: // lookup fold change of Tryptamine concentration for CC(=O)Oc1cc(C(F)(F)F)ccc1C(=O)O [Triflusal] (20 µM)
Ans: 1.03

Q: // lookup fold change of Tryptamine concentration for CC(C)(C)NC[C@H](O)COc1ccccc1C1CCCC1 [Penbutolol sulfate] (20 µM)
Ans: 1.03
